Molecular target: RNF31 PUB domain (Homo sapiens)
Construct: MBP-TEV (N, cleaved yes); made in house; host or cells: E. coli BL21 (DE3) pLysS
Sequence (Q96EP0 1-179): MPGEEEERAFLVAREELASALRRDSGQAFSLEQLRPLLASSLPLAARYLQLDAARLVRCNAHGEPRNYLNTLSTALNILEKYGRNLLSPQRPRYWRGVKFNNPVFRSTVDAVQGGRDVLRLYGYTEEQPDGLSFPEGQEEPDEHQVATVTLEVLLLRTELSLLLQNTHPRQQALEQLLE
Assay: Phage Library Screening with NGS, RNF31 PUB domain
Type: binding
Settings: RNF31 PUB domain clusters C41-C45; target concentration 30
Provide the reported Phage library screen NGS readout, Target Concentration 30 of each item.
One number for each entry.

// for each sequence below, give its Phage library screen NGS readout, Target Concentration 30
1. DPAYWDCLYAAADCAFY
2. DPAQMECIDAAIMCSYT
3. DPAWWDCMYAASHCDTV
4. DPAEDWCMYAAWDCQME
5. DPAWMQCMYAAWDCNIE

0
0
0
0
0

// for each sequence below, give its Phage library screen NGS readout, Target Concentration 30
1. DPAYYTCDWAAIYCDYH
2. DPAAEDCHIAAMVCMTY
3. DPAFAQCEVAAMVCTTY
4. DPAWWNCLYAAYECNHA
5. DPALVTCTWAAIYCDDF
6. DPAIDACYDAAVMCTYV
7. DPAFDWCLYAADDCAET

1: 0; 2: 4; 3: 0; 4: 0; 5: 1; 6: 0; 7: 0

// for each sequence below, give its Phage library screen NGS readout, Target Concentration 30
1. DPAWTDCDWAALYCDES
2. DPALSHCTVAAMVCSTY
3. DPAYSSCSWAAIYCNWT
4. DPANFTCRVAADVCSTY
5. DPADWDCMYAAQDCFED

[0, 1, 1, 0, 0]

----------
Provide the reported interaction data at Target Concentration 10 of each item.
Molecular target: CUL4B (Homo sapiens, UniProt Q13620, L520D/V516R)
Construct: GST-TEV (N, cleaved yes); made in house; host or cells: E. coli BL21 CodonPlus
Sequence (Q13620 206-557 V516R/L520D): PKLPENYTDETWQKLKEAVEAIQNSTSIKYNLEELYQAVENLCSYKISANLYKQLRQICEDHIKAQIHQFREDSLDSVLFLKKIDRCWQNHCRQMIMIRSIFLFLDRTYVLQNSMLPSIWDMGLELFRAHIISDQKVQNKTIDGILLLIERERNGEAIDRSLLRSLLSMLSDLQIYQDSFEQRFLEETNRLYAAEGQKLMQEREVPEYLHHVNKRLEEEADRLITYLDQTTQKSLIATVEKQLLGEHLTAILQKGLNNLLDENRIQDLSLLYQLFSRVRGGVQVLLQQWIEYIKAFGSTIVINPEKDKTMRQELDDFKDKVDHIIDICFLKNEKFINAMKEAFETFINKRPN
Assay: Naive Library Presenter Screening (phage, NGS), CUL4B
Format: binding
Conditions: CUL4B target concentration 10 nM

Reference set (5 entries):
• DPADRLCELAAWVCQSF = 0
• DPADRYCDMAAWVCERF = 1
• DPATRHCIFAAWACDRF = 0
• DPAERHCQLAAWVCHQF = 0
• DPASRMCEMAAWFCENY = 0

// for each sequence below, give its interaction data at Target Concentration 10
1. DPAMNHCVLAAWVCDTF
2. DPAQRACQFAAWICERF

1: 0; 2: 1

// for each sequence below, give its interaction data at Target Concentration 10
1. DPATTECILAAWICDRF
2. DPATRMCELAAWTCEVW
3. DPASRLCELAAWVCDSF
4. DPADRQCLFAAWYCEHT
5. DPADRWCELAAWICDEF
6. DPADRQCIFAAWMCEAF

[0, 0, 4, 0, 0, 0]

----------
Target: RNF31 UBA domain (Homo sapiens, UniProt Q96EP0)
Construct: RNF31 UBA domain protein (residues 480-639) with N-terminal Thioredoxin-TEV-6×his-yBBr-3C tags; Thioredoxin (N, cleaved yes); made in house; host or cells: E. coli BL21 (DE3) pLysS
Sequence (Q96EP0 480-639): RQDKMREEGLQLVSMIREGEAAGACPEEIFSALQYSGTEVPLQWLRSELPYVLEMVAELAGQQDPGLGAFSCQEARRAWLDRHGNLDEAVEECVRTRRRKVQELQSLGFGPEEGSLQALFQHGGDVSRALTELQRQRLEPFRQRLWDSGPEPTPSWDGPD
Test: Phage Library Screening with NGS, RNF31 UBA domain
Assay type: binding
Details: Target Concentration 10; no competitor
Provide the reported phage screen NGS read-out at Target Concentration 10 of each item.
Numbers only.

Reference set (4 entries):
- DPADLICQLAAANCIYL: 0
- DPAFSECVYAAFSCSWI: 1
- DPAFSRCVYAAVACEDH: 0
- DPAHEHCTAAASWCYIL: 0

// for each sequence below, give its phage screen NGS read-out at Target Concentration 10
1. DPAFYECVYAAVTCTQF
2. DPAFSQCVYAAWHCESL

[0, 1]

Endpoint output: phage screen NGS read-out at Target Concentration 10 of DPALTHCTAAAYWCYVM . Value?
0

----------
target: WWP1 (Homo sapiens, UniProt Q9H0M0); construct: GST-TEV (N, cleaved yes); made in house; host or cells: Escherichia coli BL21 (DE3); assay: Naive Library Presenter Screening (phage, NGS), WWP1 (construct not given); assay type: binding; details: WWP1 target concentration 1000 nM, second column
Numbered stars: 1 amine (or outer) side, 2 acyl side, 3 side chain; on linkers, the order of the positions; unused ones are H or OH. Bridge positions count the residues as written; N and C are the ends. Ends that are not written are not given here. Phenylene(1,4-NHCOCH2)2 = O=C(C[*:1])Nc1ccc(NC(=O)C[*:2])cc1
Provide the reported interaction data at Target Concentration 1000 of each item.
Numbers only.

Reference set (4 entries):
- DPALQTCMDAAQVCRLL (linker 7-14 via Phenylene(1,4-NHCOCH2)2): 197
- DPAWVSCVRAANLCHVS (linker 7-14 via Phenylene(1,4-NHCOCH2)2 (inferred); not fully specified (C-terminus)): 140
- DPATETCAQAAVLCHSD (linker 7-14 via Phenylene(1,4-NHCOCH2)2 (inferred); not fully specified (C-terminus)): 449
- DPAWMACAWAANLCHSS (linker 7-14 via Phenylene(1,4-NHCOCH2)2): 253

// for each sequence below, give its interaction data at Target Concentration 1000
1. DPAATLCNQAANVCALL (linker 7-14 via Phenylene(1,4-NHCOCH2)2)
2. DPAVRDCSDAAIVCELV (linker 7-14 via Phenylene(1,4-NHCOCH2)2)
3. DPAQQTCSQAAWVCSIL (linker 7-14 via Phenylene(1,4-NHCOCH2)2; not fully specified (C-terminus))
4. DPAFLTCTLAASLCHQD (linker 7-14 via Phenylene(1,4-NHCOCH2)2)
5. DPATMNCTLAANICHSH (linker 7-14 via Phenylene(1,4-NHCOCH2)2 (inferred); not fully specified (C-terminus))

1: 197; 2: 197; 3: 477; 4: 253; 5: 197

// for each sequence below, give its interaction data at Target Concentration 1000
1. DPAHQTCAFAAVLCHQN (linker 7-14 via Phenylene(1,4-NHCOCH2)2)
2. DPAFIQCTHAANMCHSS (linker 7-14 via Phenylene(1,4-NHCOCH2)2)
3. DPALASCQQAAWVCEVL (linker 7-14 via Phenylene(1,4-NHCOCH2)2)
4. DPAHTACNQAARVCHTL (linker 7-14 via Phenylene(1,4-NHCOCH2)2)
5. DPAMIACSHAAQMCHWS (linker 7-14 via Phenylene(1,4-NHCOCH2)2)
6. DPAIMSCMYAAEVCRVL (linker 7-14 via Phenylene(1,4-NHCOCH2)2)
7. DPAQLSCTVAAHVCHST (linker 7-14 via Phenylene(1,4-NHCOCH2)2; not fully specified (C-terminus))

1. 309
2. 562
3. 309
4. 253
5. 281
6. 253
7. 140

// for each sequence below, give its interaction data at Target Concentration 1000
1. DPARWACTEAAHVCDTL (linker 7-14 via Phenylene(1,4-NHCOCH2)2)
2. DPATHVCTTAA VMCHQT (DPATHVCTTAAVMCHQT; not fully specified; cysteine pairing not given here)
3. DPAIFDCEFAAHVCSVL (linker 7-14 via Phenylene(1,4-NHCOCH2)2)
4. DPAFHYCTMAANMCHQD (linker 7-14 via Phenylene(1,4-NHCOCH2)2)
5. DPAIQRCSTAAQVCRYL (linker 7-14 via Phenylene(1,4-NHCOCH2)2)
6. DPARLDCTAAAYVCSVL (linker 7-14 via Phenylene(1,4-NHCOCH2)2)
7. DPAMRRCHQAAWVCEVL (linker 7-14 via Phenylene(1,4-NHCOCH2)2)

1: 281; 2: 365; 3: 618; 4: 169; 5: 197; 6: 140; 7: 140

Endpoint output: interaction data at Target Concentration 1000 of DPAIIRCTSAAMMCHNT (linker 7-14 via Phenylene(1,4-NHCOCH2)2) . Value?
169
